target: KRAS^G12D-FMe.RAF1^RBDCRD complex (Homo sapiens, UniProt P01116, G12D); test: SHG assay: binding to bilayer-tethered KRAS G12D/RAF1 complex; conditions: GppNHp-loaded complex on PS bilayer; compound 0.027-40 μM, monitored over 60 min
VALUE TYPE: EC50

[
  {
    "COMPOUND": "Cc1ccc(-c2ncc(CNC(=O)C3(O)CC3)c(N3CCC(CN)C3)n2)cc1Cl (centres unmarked) [Compound 96]",
    "TESTED TARGET": "KRAS^G12D-FMe.RAF1^RBDCRD complex (Homo sapiens, UniProt P01116, G12D)",
    "EC50": "1 to 10 µM"
  },
  {
    "COMPOUND": "Cc1ccc(-c2ncc(CN3CCCC3=O)c(N3CCC(CN)C3)n2)cc1Cl (centres unmarked) [Compound 122]",
    "TESTED TARGET": "KRAS^G12D-FMe.RAF1^RBDCRD complex (Homo sapiens, UniProt P01116, G12D)",
    "EC50": "1 to 10 µM"
  },
  {
    "COMPOUND": "Cc1ccc(-c2ncc(CNC(=O)C(F)c3ccccc3)c(N3CCC(CN)C3)n2)cc1Cl (centres unmarked) [Compound 133]",
    "TESTED TARGET": "KRAS^G12D-FMe.RAF1^RBDCRD complex (Homo sapiens, UniProt P01116, G12D)",
    "EC50": "1 to 10 µM"
  },
  {
    "COMPOUND": "N#CC1(C(=O)NCc2cnc(-c3ccc(Cl)c(C(F)(F)F)c3)nc2OCCCN)CC1 [Compound 74]",
    "TESTED TARGET": "KRAS^G12D-FMe.RAF1^RBDCRD complex (Homo sapiens, UniProt P01116, G12D)",
    "EC50": "1 to 10 µM"
  },
  {
    "COMPOUND": "N#CC1(C(=O)NCc2cnc(-c3ccc(Cl)c(C(F)(F)F)c3)nc2N2CCC(F)(CN)C2)CC1 (centres unmarked) [Compound 47]",
    "TESTED TARGET": "KRAS^G12D-FMe.RAF1^RBDCRD complex (Homo sapiens, UniProt P01116, G12D)",
    "EC50": "1 to 10 µM"
  }
]

# per-item lookup of EC50; items listed below
1. Cc1ccc(-c2ncc(CNC(=O)C3(N)CC3)c(N3CCC(CN)C3)n2)cc1Cl (centres unmarked) [Compound 81]
2. Cc1ccc(-c2ncc(CNC(=O)C3(F)CNC3)c(N3CCC(CN)C3)n2)cc1Cl (centres unmarked) [Compound 102]
3. C#Cc1cc(-c2ncc(CNC(=O)C3(C#N)CC3)c(N3CCC(CN(C)C)C3)n2)cc(F)c1C (centres unmarked) [Compound 147]

-- reply
1: 10 to 50 µM; 2: 1 to 10 µM; 3: 10 to 50 µM

The measured values listed here are drawn from patent US20240327356A1.
